method description: Pharmacokinetic study of female BALB/c nude mice (plasma and tumor)
Assay type: in vivo
measurement context: female, BALB/c nude, mouse, po; plasma, 10 mg/kg intragastric
quantity: Tmax (min)
The figure you give is taken to be in min; do not add the unit.

Q: // Tmax lookup, key: C=CC(=O)N1CCN2c3c(c(=O)n(-c4c(C)ccnc4C(C)C)c4c(=O)n(-c5c(N)c(Cl)cc(Cl)c5F)c(C(F)(F)F)cc34)OCC[C@H]2C1
Ans: 15

###

method description: Pharmacokinetic study of female BALB/c nude mice (plasma and tumor)
Format: in vivo
measurement context: female, BALB/c nude, mouse, oral; plasma, 10 mg/kg intragastric, 4.00 h; read-out: Mean drug concentration
quantity: concentration at 4 h (nM)
The figure you give is taken to be in nM; do not add the unit.

Q: // concentration at 4 h lookup, key: C=CC(=O)N1CCN2c3c(c(=O)n(-c4c(C)ccnc4C(C)C)c4c(=O)n(-c5c(N)c(Cl)cc(Cl)c5F)c(C(F)(F)F)cc34)OCC[C@H]2C1
Ans: 54.8

###

method description: Pharmacokinetic study of female BALB/c nude mice (plasma and tumor)
Format: in vivo
measurement context: female, BALB/c nude, mouse, oral; tumor, 1 mg/kg intragastric, 1.00 h; read-out: Mean drug concentration
quantity: concentration at 1 h (nM)
The figure you give is taken to be in nM; do not add the unit.

Q: // concentration at 1 h lookup, key: C=CC(=O)N1CCN2c3c(c(=O)n(-c4c(C)ccnc4C(C)C)c4c(=O)n(-c5c(N)c(Cl)cc(Cl)c5F)c(C(F)(F)F)cc34)OCC[C@H]2C1
Ans: 10.4

###

method description: Pharmacokinetic study of female BALB/c nude mice (plasma and tumor)
Type: in vivo
measurement context: female, BALB/c nude, mouse, oral; tumor, 10 mg/kg intragastric, 8.00 h; read-out: Mean drug concentration
quantity: concentration at 8 h (nM)
The figure you give is taken to be in nM; do not add the unit.

Q: // concentration at 8 h lookup, key: C=CC(=O)N1CCN2c3c(c(=O)n(-c4c(C)ccnc4C(C)C)c4c(=O)n(-c5c(N)c(Cl)cc(Cl)c5F)c(C(F)(F)F)cc34)OCC[C@H]2C1 [Compound 1D]
Ans: 20.8

###

method description: Pharmacokinetic study of female BALB/c nude mice (plasma and tumor)
Assay type: in vivo
measurement context: female, BALB/c nude, mouse, tumor/plasma, po; 3 mg/kg intragastric; read-out: AUC ratio = tumor AUC0-last/plasma AUC0-last
quantity: Kp
Enter the number alone.

Q: // Kp lookup, key: C=CC(=O)N1CCN2c3c(c(=O)n(-c4c(C)ccnc4C(C)C)c4c(=O)n(-c5c(N)c(Cl)cc(Cl)c5F)c(C(F)(F)F)cc34)OCC[C@H]2C1
Ans: 0.815

###

method description: Pharmacokinetic study of female BALB/c nude mice (plasma and tumor)
Assay type: in vivo
measurement context: female, BALB/c nude, mouse, po; plasma, 1 mg/kg intragastric
quantity: Tmax (min)
The figure you give is taken to be in min; do not add the unit.

Q: // Tmax lookup, key: C=CC(=O)N1CCN2c3c(c(=O)n(-c4c(C)ccnc4C(C)C)c4c(=O)n(-c5c(N)c(Cl)cc(Cl)c5F)c(C(F)(F)F)cc34)OCC[C@H]2C1
Ans: 15

###

method description: Pharmacokinetic study of female BALB/c nude mice (plasma and tumor)
Format: in vivo
measurement context: female, BALB/c nude, mouse, oral; plasma, 1 mg/kg intragastric, 8.00 h; read-out: Mean drug concentration
quantity: concentration at 8 h (nM)
The figure you give is taken to be in nM; do not add the unit.

Q: // concentration at 8 h lookup, key: C=CC(=O)N1CCN2c3c(c(=O)n(-c4c(C)ccnc4C(C)C)c4c(=O)n(-c5c(N)c(Cl)cc(Cl)c5F)c(C(F)(F)F)cc34)OCC[C@H]2C1
Ans: 1.22

Provenance of the data: patent US20230357272A1
